target: Elastase from human neutrophils (Homo sapiens, UniProt P08246); test: Enzymatic assay, elastase; settings: Elastase IC50
Sequence (P08246 30-267): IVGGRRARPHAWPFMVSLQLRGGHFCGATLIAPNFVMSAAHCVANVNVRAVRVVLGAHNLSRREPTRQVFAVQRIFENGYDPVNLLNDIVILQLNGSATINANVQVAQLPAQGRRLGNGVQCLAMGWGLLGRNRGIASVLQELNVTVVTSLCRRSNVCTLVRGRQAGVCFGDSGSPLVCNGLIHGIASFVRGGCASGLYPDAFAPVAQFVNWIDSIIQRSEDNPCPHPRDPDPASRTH
Where a SMILES comes first, the peptide text is derived from it.

>  <compound>
CCCCCCCC[C@@H]1NC(=O)[C@@H]2CCCN2C(=O)[C@H]2CCCN2C(=O)[C@H](Cc2ccc(O)cc2)NC(=O)[C@H]([C@@H](C)O)NC(=O)[C@H](CCC(N)=O)NC(=O)[C@@H]2CCCN2C(=O)[C@@H]2CCCN2C(=O)[C@H]([C@@H](C)CC)NC(=O)[C@H](CO)NC(=O)[C@H](C)NC(=O)[C@H]([C@@H](C)O)NC(=O)[C@H](CCC(N)=O)NC1=O [Ex. 154] (HELM PEPTIDE1{[CCCCCCCC[C@H](N[*:1])C(=O)[*:2]].Q.T.A.S.I.P.P.Q.T.Y.[dP].P}$PEPTIDE1,PEPTIDE1,1:R1-13:R2$$$V2.0)

>  <readingUnit>
nM

>  <IC50>
8.3

$$$$

====

biological target: Urokinase from human urine (Homo sapiens, UniProt P00749); assay: Enzymatic assay, urokinase
Where a SMILES comes first, the peptide text is derived from it.
attributeMeasured: Urokinase at 100 μM % (%)

>  <compound>
CC[C@H](C)[C@@H]1NC(=O)[C@@H]2CCCN2C(=O)[C@@H]2CCCN2C(=O)[C@H](CC(=O)O)NC(=O)[C@H](CO)NC(=O)[C@H](CCCCN)NC(=O)[C@H]([C@@H](C)O)NC(=O)[C@@H]2CSSC[C@H](NC1=O)C(=O)N[C@@H]([C@@H](C)O)C(=O)N1CCC[C@@H]1C(=O)N1CCC[C@H]1C(=O)N[C@@H](C1CCCCC1)C(=O)N2 [Ex. 38] (HELM PEPTIDE1{[O=C([C@@H](N[*:1])C1CCCCC1)[*:2]].C.T.K.S.D.P.P.I.C.T.[dP].P}$PEPTIDE1,PEPTIDE1,2:R3-10:R3|PEPTIDE1,PEPTIDE1,1:R1-13:R2$$$V2.0)

>  <attributeMeasured>
Urokinase at 100 μM %

>  <experimentalValue>
1

$$$$

====

We begin with a simple list: items and their reported IC50.
molecular target: Elastase from human neutrophils (Homo sapiens, UniProt P08246); assay: Enzymatic assay, elastase; settings: Elastase IC50
Where a SMILES comes first, the peptide text is derived from it.

>  <compound>
CC[C@H](C)[C@@H]1NC(=O)[C@@H]2CCCN2C(=O)[C@@H]2CCCN2C(=O)[C@H](CC(=O)O)NC(=O)[C@H](CO)NC(=O)[C@H](CCCCN)NC(=O)[C@H]([C@@H](C)O)NC(=O)[C@@H]2CSSC[C@H](NC1=O)C(=O)N[C@@H](Cc1ccc(O)cc1)C(=O)N1CCC[C@@H]1C(=O)N1CCC[C@H]1C(=O)N[C@@H](Cc1ccccc1)C(=O)N2 [Ex. 5] (HELM PEPTIDE1{F.C.T.K.S.D.P.P.I.C.Y.[dP].P}$PEPTIDE1,PEPTIDE1,2:R3-10:R3|PEPTIDE1,PEPTIDE1,1:R1-13:R2$$$V2.0)

>  <valueOperator>
>

>  <IC50, nM>
100000

$$$$
>  <compound>
CCCC[C@@H]1NC(=O)[C@@H]2CCCN2C(=O)[C@H]2CCCCN2C(=O)[C@H](Cc2ccc(O)cc2)NC(=O)[C@@H]2CSSC[C@H](NC1=O)C(=O)N[C@@H]([C@@H](C)O)C(=O)N[C@@H](C)C(=O)N[C@@H](CO)C(=O)N[C@@H]([C@@H](C)CC)C(=O)N1CCC[C@H]1C(=O)N1CCC[C@H]1C(=O)N[C@@H](CCC(N)=O)C(=O)N2 [Ex. 120] (HELM PEPTIDE1{A.S.I.P.P.Q.C.Y.[O=C([C@H]1CCCCN1[*:1])[*:2]].P.[Nle].C.T}$PEPTIDE1,PEPTIDE1,7:R3-12:R3|PEPTIDE1,PEPTIDE1,1:R1-13:R2$$$V2.0)

>  <valueOperator>
=

>  <IC50, nM>
29

$$$$
>  <compound>
CCCCCCCC[C@@H]1NC(=O)[C@@H]2CCCN2C(=O)[C@H]2CCCN2C(=O)[C@H](Cc2ccccc2)NC(=O)[C@@H]2CSSC[C@H](NC1=O)C(=O)N[C@@H]([C@@H](C)O)C(=O)N[C@@H](C)C(=O)N[C@@H](CO)C(=O)N[C@@H]([C@@H](C)CC)C(=O)N1CCC[C@H]1C(=O)N1CCC[C@H]1C(=O)N[C@@H](CCC(N)=O)C(=O)N2 [Ex. 145] (HELM PEPTIDE1{[CCCCCCCC[C@H](N[*:1])C(=O)[*:2]].C.T.A.S.I.P.P.Q.C.F.[dP].P}$PEPTIDE1,PEPTIDE1,2:R3-10:R3|PEPTIDE1,PEPTIDE1,1:R1-13:R2$$$V2.0)

>  <valueOperator>
=

>  <IC50, nM>
14

$$$$
>  <compound>
CCCC[C@@H]1NC(=O)[C@@H]2CCCN2C(=O)[C@H]2CCCN2C(=O)[C@H](Cc2ccc(O)cc2)NC(=O)[C@@H]2CSSC[C@H](NC1=O)C(=O)N[C@@H]([C@@H](C)O)C(=O)N[C@@H](C)C(=O)N[C@@H](CO)C(=O)N[C@@H]([C@@H](C)CC)C(=O)N1CCC[C@H]1C(=O)N1CCC[C@H]1C(=O)N[C@@H](Cc1ccccc1)C(=O)N2 [Ex. 89] (HELM PEPTIDE1{[Nle].C.T.A.S.I.P.P.F.C.Y.[dP].P}$PEPTIDE1,PEPTIDE1,2:R3-10:R3|PEPTIDE1,PEPTIDE1,1:R1-13:R2$$$V2.0)

>  <valueOperator>
=

>  <IC50, nM>
43

$$$$
>  <compound>
CCCC[C@@H]1NC(=O)[C@@H]2CCCN2C(=O)[C@H]2CCCN2C(=O)[C@H](Cc2ccc(O)cc2)NC(=O)[C@H](CCCCN)NC(=O)[C@H](CCC(N)=O)NC(=O)[C@@H]2CCCN2C(=O)[C@@H]2CCCN2C(=O)[C@H]([C@@H](C)CC)NC(=O)[C@H](CO)NC(=O)[C@H](C)NC(=O)[C@H]([C@@H](C)O)NC(=O)[C@H](CCC(=O)O)NC1=O [Ex. 104] (HELM PEPTIDE1{[Nle].E.T.A.S.I.P.P.Q.K.Y.[dP].P}$PEPTIDE1,PEPTIDE1,1:R1-13:R2$$$V2.0)

>  <valueOperator>
=

>  <IC50, nM>
34

$$$$
